Assay: Plasma pharmacokinetics in patients (LC-MS, noncompartmental analysis)
Assay type: in vivo, human
Conditions: human, plasma, oral; 30 mg day^−1, first treatment course, mean, N=3
assay endpoint: Cmax (ng/mL)
Answer with a number only, understood to be in ng/mL.

What does the record list as Cmax for COc1cccc2c1ccc1nc3cccc(C(=O)N[C@H](C)CN(C)C)c3nc12 [XR11576] ?
8.07

====

Experiment: Plasma pharmacokinetics in patients (LC-MS, noncompartmental analysis)
Assay type: in vivo, human
Settings: human, plasma, oral; 180 mg day^−1, first treatment course, mean, N=3
assay endpoint: AUC(0-inf)
Give the figure together with its unit, number first.

AUC(0-inf) for COc1cccc2c1ccc1nc3cccc(C(=O)N[C@H](C)CN(C)C)c3nc12 ?
1810 ng·h/mL

====

Assay: Plasma pharmacokinetics in patients (LC-MS, noncompartmental analysis)
Type: in vivo, human
Details: human, plasma, oral; 30 mg day^−1, first treatment course, mean, N=3
assay endpoint: AUC(0-t) (µg·h/mL)
Respond numerically; units are µg·h/mL and should not be typed.

Item COc1cccc2c1ccc1nc3cccc(C(=O)N[C@H](C)CN(C)C)c3nc12 [XR11576] has what recorded AUC(0-t)?
0.0362

====

Assay: Plasma pharmacokinetics in patients (LC-MS, noncompartmental analysis)
Type: in vivo, human
Conditions: human, plasma, oral; 120 mg day^−1, first treatment course, mean, N=8
assay endpoint: AUC(0-t) (µg·h/mL)
API: value field is a number in µg·h/mL; no unit string.

Which value of AUC(0-t) has been reported for COc1cccc2c1ccc1nc3cccc(C(=O)N[C@H](C)CN(C)C)c3nc12 in the records?
0.329

====

Assay: Plasma pharmacokinetics in patients (LC-MS, noncompartmental analysis)
Format: in vivo, human
Details: human, plasma, oral; 60 mg day^−1, first treatment course, mean, N=4
assay endpoint: AUC(0-t) (ng·h/mL)
A number alone suffices; assume ng·h/mL.

Name the recorded AUC(0-t) for COc1cccc2c1ccc1nc3cccc(C(=O)N[C@H](C)CN(C)C)c3nc12 .
178

====

Assay: Plasma pharmacokinetics in patients (LC-MS, noncompartmental analysis)
Type: in vivo, human
Conditions: human, plasma, oral; 120 mg day^−1, first treatment course, mean, N=8
assay endpoint: Tmax (h)
Record the value in h, omitting the unit from your answer.

What measured Tmax goes with COc1cccc2c1ccc1nc3cccc(C(=O)N[C@H](C)CN(C)C)c3nc12 [XR11576] ?
3.75

====

Test: Plasma pharmacokinetics in patients (LC-MS, noncompartmental analysis)
Format: in vivo, human
Settings: human, plasma, oral; 150 mg day^−1, first treatment course, mean, N=3
assay endpoint: Tmax
Provide a numeric answer, followed by its unit.

What Tmax value was documented for this compound, COc1cccc2c1ccc1nc3cccc(C(=O)N[C@H](C)CN(C)C)c3nc12 ?
4 h

====

Assay: Plasma pharmacokinetics in patients (LC-MS, noncompartmental analysis)
Format: in vivo, human
Conditions: human, plasma, oral; all dose levels; read-out: mean terminal half-life
assay endpoint: half-life

Reported half-life, molecule COc1cccc2c1ccc1nc3cccc(C(=O)N[C@H](C)CN(C)C)c3nc12 [XR11576] : ____
≤ 70 h

====

Experiment: Plasma pharmacokinetics in patients (LC-MS, noncompartmental analysis)
Format: in vivo, human
Conditions: human, plasma, oral; 150 mg day^−1, first treatment course, mean, N=3
Experimental: For PK analysis, 58 blood samples (∼5 ml each) were obtained from an indwelling intravenous cannula and collected in vials containing lithium heparin as anticoagulant. […] All samples were centrifuged immediately after sampling at 3000 r.p.m. for 10 min at 4°C and the plasma was stored at −20°C or lower in polypropylene tubes in the dark until analysis. […] Of the total amount collected, a measured quantity of 10 ml was drawn off and stored at −80°C until analysis. […]
assay endpoint: Cmax (ng/mL)
Answer in ng/mL, number only, no unit symbol.

Item COc1cccc2c1ccc1nc3cccc(C(=O)N[C@H](C)CN(C)C)c3nc12 [XR11576] has what recorded Cmax?
167
